protocolNotes: Selectivity ratio of IC50 for antiproliferative activity against human HCT-116 cells overexpressing cytochrome P450 oxidoreductase assessed as inhibition of cell growth under aerobic condition to IC50 for antiproliferative activity against human HCT-116 cells overexpressing cytochrome P450 oxidoreductase assessed as inhibition of cell growth under anoxic condition
Assay type: functional
Answer NOT MET if Ratio IC50 is under 80, and MET if it is 80 or more.

Request: Reported Ratio IC50 reaches at least 80 for CS(=O)(=O)OCCN(CCBr)c1c(C(=O)NCCO)cc([N+](=O)[O-])cc1[N+](=O)[O-] ?
Response: MET

Request: Similarly, CCN1CCN(C(=O)c2cc(N(CCBr)CCOS(C)(=O)=O)c(S(C)(=O)=O)cc2[N+](=O)[O-])CC1 ?
Response: MET

Request: // repeat for CN1CCN(C(=O)c2cc(N(CCBr)CCBr)c(S(C)(=O)=O)cc2[N+](=O)[O-])CC1 and report
Response: MET

Request: Try the compound CN1CCN(C(=O)c2cc(N(CCBr)CCOS(C)(=O)=O)c(S(C)(=O)=O)cc2[N+](=O)[O-])CC1
Response: MET

Request: Thanks! And CCN1CCN(C(=O)c2cc(N(CCBr)CCOS(C)(=O)=O)c(S(=O)(=O)CC)cc2[N+](=O)[O-])CC1 ?
Response: NOT MET

Request: Check CCN1CCN(C(=O)c2cc(N(CCBr)CCBr)c(S(=O)(=O)CC)cc2[N+](=O)[O-])CC1 too.
Response: NOT MET
